Molecular target: human PTPN2 (1-387) (Homo sapiens (Human), UniProt P17706)
Sequence (P17706 other isoform, or with tags, fused parts or gaps): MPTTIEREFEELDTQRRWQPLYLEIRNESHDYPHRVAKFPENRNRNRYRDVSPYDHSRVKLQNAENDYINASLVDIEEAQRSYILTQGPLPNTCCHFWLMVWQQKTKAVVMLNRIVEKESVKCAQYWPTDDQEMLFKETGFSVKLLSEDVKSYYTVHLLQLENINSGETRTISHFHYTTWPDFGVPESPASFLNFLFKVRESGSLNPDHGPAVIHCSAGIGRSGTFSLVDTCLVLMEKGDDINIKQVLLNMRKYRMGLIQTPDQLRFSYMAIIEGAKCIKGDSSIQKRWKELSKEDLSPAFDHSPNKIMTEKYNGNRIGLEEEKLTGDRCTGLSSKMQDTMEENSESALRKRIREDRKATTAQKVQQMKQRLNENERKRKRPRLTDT
pIC50: −log10 of the molar value.
reported-property: pIC50

molecular-string	measured-on	quantitative-readout
COc1cccc(NC(=O)c2ccc3sc(C(F)(F)P(=O)(O)O)c(Br)c3c2)c1	human PTPN2 (1-387) (Homo sapiens (Human), UniProt P17706)	5.67

I. O=C(NCCn1cncn1)c1ccc2sc(C(F)(F)P(=O)(O)O)c(Br)c2c1
II. CS(=O)(=O)CCCOc1cc(-c2nc[nH]n2)cc2c(Br)c(C(F)(F)P(=O)(O)O)sc12
Pick one: I or II . Which one has the lower reported pIC50? Respond with the label that goes with your answer.
I
(I: 5.13, II: 8.60)
